A collection of compounds and their measured efflux ratio at 120 min, 500 μM
- protocol-notes: Transport studies across Caco-2 monolayers (P app, efflux ratio)
- Type: in vitro ADME
- recorded-conditions: human, Caco-2, efflux ratio P app(basolateral-apical)/P app(apical-basolateral), with or without 200 μM Borneol (see label); read-out: E r
- Method: Medium was replaced every 2-3 days. […] The vinblastine-selected Caco-2 cells were cultivated in the presence of 10 nM vinblastine to induce P-glycoprotein (P-gp) expression. […] Prior to the transport study, cytotoxicity of NGR1, GRg1, GRe, and Borneol toward Caco-2 cells was determined using MTT assays. […] The efflux ratio (Er) was calculated using the following equation: (2) Er=Papp(basolateral-apical)/Papp(apical-basolateral).
Lab note: jot down the number only; don't add units.

For the compound CC(C)=CCC[C@](C)(O[C@@H]1O[C@H](CO)[C@@H](O)[C@H](O)[C@H]1O)[C@H]1CC[C@]2(C)[C@@H]1[C@H](O)C[C@@H]1[C@@]3(C)CC[C@H](O)C(C)(C)[C@@H]3[C@@H](O[C@@H]3O[C@H](CO)[C@@H](O)[C@H](O)[C@H]3O[C@@H]3O[C@@H](C)[C@H](O)[C@@H](O)[C@H]3O)C[C@]12C [GRe, ginsenoside Re] , give its reported efflux ratio at 120 min, 500 μM.
1.05

Consider the additional compound presented here.
For the compound CC(C)=CCC[C@](C)(O[C@@H]1O[C@H](CO)[C@@H](O)[C@H](O)[C@H]1O)[C@H]1CC[C@]2(C)[C@@H]1[C@H](O)C[C@@H]1[C@@]3(C)CC[C@H](O)C(C)(C)[C@@H]3[C@@H](O[C@@H]3O[C@H](CO)[C@@H](O)[C@H](O)[C@H]3O)C[C@]12C [GRg1, ginsenoside Rg1] , give its reported efflux ratio at 120 min, 500 μM.
1.05

----------
A collection of compounds and their measured concentration at 3 h
- protocol-notes: Tissue distribution study in rabbits after oral Panax notoginseng extract with or without Borneol
- Assay type: in vivo, New Zealand rabbits
- recorded-conditions: New Zealand, rabbit, lung, po, 3 mL·kg^−1, 3.0 h, oral Panax notoginseng, read-out: Concentration in lung
Output spec: scalar in ng/g, unitless text.

For the compound CC(C)=CCC[C@](C)(O[C@@H]1O[C@H](CO)[C@@H](O)[C@H](O)[C@H]1O)[C@H]1CC[C@]2(C)[C@@H]1[C@H](O)C[C@@H]1[C@@]3(C)CC[C@H](O)C(C)(C)[C@@H]3[C@@H](O[C@@H]3O[C@H](CO)[C@@H](O)[C@H](O)[C@H]3O[C@@H]3O[C@@H](C)[C@H](O)[C@@H](O)[C@H]3O)C[C@]12C [GRe, ginsenoside Re] , give its reported concentration at 3 h.
310

Consider the additional compound presented here.
For the compound CC(C)=CCC[C@](C)(O[C@@H]1O[C@H](CO)[C@@H](O)[C@H](O)[C@H]1O)[C@H]1CC[C@]2(C)[C@@H]1[C@H](O)C[C@@H]1[C@@]3(C)CC[C@H](O)C(C)(C)[C@@H]3[C@@H](O[C@@H]3O[C@H](CO)[C@@H](O)[C@H](O)[C@H]3O)C[C@]12C [GRg1, ginsenoside Rg1] , give its reported concentration at 3 h.
11900

----------
A collection of compounds and their measured concentration at 0.5 h
- protocol-notes: Tissue distribution study in rabbits after oral Panax notoginseng extract with or without Borneol
- Format: in vivo, New Zealand rabbits
- recorded-conditions: New Zealand, rabbit, kidney, po, 3 mL·kg^−1, 0.5 h, oral Panax notoginseng with Borneol, read-out: Concentration in kidney
Output spec: scalar in ng/g, unitless text.

For the compound CC(C)=CCC[C@](C)(O[C@@H]1O[C@H](CO)[C@@H](O)[C@H](O)[C@H]1O)[C@H]1CC[C@]2(C)[C@@H]1[C@H](O)C[C@@H]1[C@@]3(C)CC[C@H](O)C(C)(C)[C@@H]3[C@@H](O[C@@H]3O[C@H](CO)[C@@H](O)[C@H](O)[C@H]3O)C[C@]12C [GRg1, ginsenoside Rg1] , give its reported concentration at 0.5 h.
27500

Consider the additional compound presented here.
For the compound CC(C)=CCC[C@](C)(O[C@@H]1O[C@H](CO)[C@@H](O)[C@H](O)[C@H]1O)[C@H]1CC[C@]2(C)[C@@H]1[C@H](O)C[C@@H]1[C@@]3(C)CC[C@H](O)C(C)(C)[C@@H]3[C@@H](O[C@@H]3O[C@H](CO)[C@@H](O)[C@H](O)[C@H]3O[C@@H]3O[C@@H](C)[C@H](O)[C@@H](O)[C@H]3O)C[C@]12C [GRe, ginsenoside Re] , give its reported concentration at 0.5 h.
2840

----------
- protocol-notes: Pharmacokinetics study in rabbits after oral Panax notoginseng extract with or without Borneol (plasma, SPE-HPLC-MS)
- Format: in vivo, New Zealand rabbits
- recorded-conditions: New Zealand, rabbit, plasma, oral 3.0 mL·kg^−1 Panax notoginseng extract combined with Borneol, read-out: t 1/2β
A collection of compounds and their measured half-life
Output spec: scalar in h, unitless text.

For the compound CC(C)=CCC[C@](C)(O[C@@H]1O[C@H](CO)[C@@H](O)[C@H](O)[C@H]1O)[C@H]1CC[C@]2(C)[C@@H]1[C@H](O)C[C@@H]1[C@@]3(C)CC[C@H](O)C(C)(C)[C@@H]3[C@@H](O[C@@H]3O[C@H](CO)[C@@H](O)[C@H](O)[C@H]3O)C[C@]12C [GRg1, ginsenoside Rg1] , give its reported half-life.
1.16

Consider the additional compound presented here.
For the compound CC(C)=CCC[C@](C)(O[C@@H]1O[C@H](CO)[C@@H](O)[C@H](O)[C@H]1O)[C@H]1CC[C@]2(C)[C@@H]1[C@H](O)C[C@@H]1[C@@]3(C)CC[C@H](O)C(C)(C)[C@@H]3[C@@H](O[C@@H]3O[C@H](CO)[C@@H](O)[C@H](O)[C@H]3O[C@@H]3O[C@@H](C)[C@H](O)[C@@H](O)[C@H]3O)C[C@]12C [GRe, ginsenoside Re] , give its reported half-life.
1.16

----------
- protocol-notes: Tissue distribution study in rabbits after oral Panax notoginseng extract with or without Borneol
- Type: in vivo, New Zealand rabbits
- recorded-conditions: New Zealand, rabbit, plasma, po, 3 mL·kg^−1, 3.0 h, oral Panax notoginseng, read-out: Concentration in plasma
quantity-kind: concentration at 3 h (ng/mL)
Output spec: scalar in ng/mL, unitless text.

For the compound CC(C)=CCC[C@](C)(O[C@@H]1O[C@H](CO)[C@@H](O)[C@H](O)[C@H]1O)[C@H]1CC[C@]2(C)[C@@H]1[C@H](O)C[C@@H]1[C@@]3(C)CC[C@H](O)C(C)(C)[C@@H]3[C@@H](O[C@@H]3O[C@H](CO)[C@@H](O)[C@H](O)[C@H]3O[C@@H]3O[C@@H](C)[C@H](O)[C@@H](O)[C@H]3O)C[C@]12C [GRe, ginsenoside Re] , give its reported concentration at 3 h.
790

New cases:
For the compound CC(C)=CCC[C@](C)(O[C@@H]1O[C@H](CO)[C@@H](O)[C@H](O)[C@H]1O)[C@H]1CC[C@]2(C)[C@@H]1[C@H](O)C[C@@H]1[C@@]3(C)CC[C@H](O)C(C)(C)[C@@H]3[C@@H](O[C@@H]3O[C@H](CO)[C@@H](O)[C@H](O)[C@H]3O)C[C@]12C [GRg1, ginsenoside Rg1] , give its reported concentration at 3 h.
980

----------
- protocol-notes: Tissue distribution study in rabbits after oral Panax notoginseng extract with or without Borneol
- Assay type: in vivo, New Zealand rabbits
- recorded-conditions: New Zealand, rabbit, heart, oral, Borneol combined with Panax notoginseng, peak levels at 1.0 h, read-out: level in heart, fold higher than the plasma concentrations
quantity-kind: Kp at 1 h
Lab note: jot down the number only; don't add units.

For the compound CC(C)=CCC[C@](C)(O[C@@H]1O[C@H](CO)[C@@H](O)[C@H](O)[C@H]1O)[C@H]1CC[C@]2(C)[C@@H]1[C@H](O)C[C@@H]1[C@@]3(C)CC[C@H](O)C(C)(C)[C@@H]3[C@@H](O[C@@H]3O[C@H](CO)[C@@H](O)[C@H](O)[C@H]3O[C@@H]3O[C@@H](C)[C@H](O)[C@@H](O)[C@H]3O)C[C@]12C [GRe, ginsenoside Re] , give its reported Kp at 1 h.
1.35

New cases:
For the compound CC(C)=CCC[C@](C)(O[C@@H]1O[C@H](CO)[C@@H](O)[C@H](O)[C@H]1O)[C@H]1CC[C@]2(C)[C@@H]1[C@H](O)C[C@@H]1[C@@]3(C)CC[C@H](O)C(C)(C)[C@@H]3[C@@H](O[C@@H]3O[C@H](CO)[C@@H](O)[C@H](O)[C@H]3O)C[C@]12C [GRg1, ginsenoside Rg1] , give its reported Kp at 1 h.
12.4
